Tested on: TAB165
Experiment: qHTS profiling for inhibitors of Plasmodium falciparum proliferation (AID 504749); note: nearly all actives have a fitted effect of over 60% in size
Details: P. falciparum in erythrocytes, SYBR Green DNA, 72 h; series mostly up to 28.7 µM
Results filed as inconclusive are left out. Activity calls are given as the source filed them. Calls come from the whole dose curve; as a rule, active = well fitted inhibition curve with a large enough effect; inconclusive = small, poorly fitted or top-dose-only effect; inactive = flat fitted curve, though single readings scatter. Where a SMILES comes first, the peptide text is derived from it. [ ]: non-standard residue; d: D form. pGlu = O=C1CC[C@@H](C(=O)O)N1; Thz = O=C(O)[C@@H]1CSCN1
Mark one answer only. Choices: active, inactive

stdin: Would you mind telling me which call this test gave `Cc1[nH]cnc1CN1CCc2c(c3ccccc3n2C)C1=O` ?
stdout: inactive

stdin: Would you mind telling me which call this test gave `O=C(/C=C/c1ccccc1)NCCO` ?
stdout: inactive

stdin: Would you mind telling me which call this test gave `c1ccc2sc(SSc3nc4ccccc4s3)nc2c1` ?
stdout: inactive

stdin: Would you mind telling me which call this test gave `O=C(OCc1ccccc1)c1ccccc1` ?
stdout: inactive

stdin: Would you mind telling me which call this test gave `COc1cc(/C=C/C(=O)N2CCN(CC(=O)N3CCCC3)CC2)cc(OC)c1OC` ?
stdout: inactive

stdin: Would you mind telling me which call this test gave `Cc1ccc(C(=O)c2ccc(CC(=O)O)n2C)cc1` ?
stdout: inactive

stdin: Would you mind telling me which call this test gave `O=C(O)COc1ccc(C(=O)c2cccs2)c(Cl)c1Cl` ?
stdout: inactive

stdin: Would you mind telling me which call this test gave `C#C[C@]1(O)CC[C@H]2[C@@H]3CCc4cc(O)ccc4[C@H]3CC[C@@]21C` ?
stdout: inactive

stdin: Would you mind telling me which call this test gave CCC1C(=O)OCC1Cc1cncn1C (configuration not stated) ?
stdout: inactive

stdin: Would you mind telling me which call this test gave `Cc1c(Nc2ncccc2C(=O)O)cccc1C(F)(F)F` ?
stdout: inactive

stdin: Would you mind telling me which call this test gave `CCCCCCCCCCCC(=O)[O][Sn]([CH2]CCC)([CH2]CCC)[O]C(=O)CCCCCCCCCCC` ?
stdout: inactive

stdin: Would you mind telling me which call this test gave `Cc1ccc(O)c(-n2nc3ccccc3n2)c1` ?
stdout: inactive

stdin: Would you mind telling me which call this test gave `COc1ccc(/C=C/C(=O)Nc2ccccc2C(=O)O)cc1OC` ?
stdout: inactive

stdin: Would you mind telling me which call this test gave Cc1ccccc1CNc1ncnc2c1ncn2C1OC(CO)C(O)C1O (configuration not stated) ?
stdout: inactive

stdin: Would you mind telling me which call this test gave O=C(O)/C=C/C(O)c1ccc(Cl)cc1 (configuration not stated) ?
stdout: inactive

stdin: Would you mind telling me which call this test gave `Nc1ccc(O)c(C(=O)O)c1` ?
stdout: inactive

stdin: Would you mind telling me which call this test gave `O=C(O)Cc1ccc(-c2ccccc2)cc1` ?
stdout: inactive

stdin: Would you mind telling me which call this test gave `CCOc1ccc2nc(S(N)(=O)=O)sc2c1` ?
stdout: inactive

stdin: Would you mind telling me which call this test gave `CCCSc1ccc2nc(NC(=O)OC)[nH]c2c1` ?
stdout: inactive

stdin: Would you mind telling me which call this test gave O=C1CC[C@@H](C(=O)N2CSC[C@H]2C(=O)O)N1 ([pGlu]-[Thz]-OH) ?
stdout: inactive

stdin: Would you mind telling me which call this test gave `O=C(O)c1ccccc1Nc1cccc(C(F)(F)F)c1` ?
stdout: inactive

stdin: Would you mind telling me which call this test gave `O=C1CN(/N=C/c2ccc(-c3ccc([N+](=O)[O-])cc3)o2)C(=O)N1` ?
stdout: inactive

stdin: Would you mind telling me which call this test gave CC(C(=O)O)c1ccc2c(c1)[nH]c1ccc(Cl)cc12 (configuration not stated) ?
stdout: inactive

stdin: Would you mind telling me which call this test gave `CN1CCN(c2cc3c(nn2)Oc2ccccc2N3C)CC1` ?
stdout: inactive

stdin: Would you mind telling me which call this test gave COC(=O)C1=C(C)NC(C)=C(C(=O)OCC(C)C)C1c1ccccc1[N+](=O)[O-] (configuration not stated) ?
stdout: active

stdin: Would you mind telling me which call this test gave `CCCOC(=O)c1ccc(O)cc1` ?
stdout: inactive

stdin: Would you mind telling me which call this test gave `C=C(Nc1ccc(OCC)cc1)Nc1ccc(OCC)cc1` ?
stdout: inactive

These data points were gathered from PubChem BioAssay (NCATS).
